Quick reference for fluorescence artifact activation among some compounds
assay info: IANBD-channel fluorescence artefacts in buffer – biochemical, artefact control for cardiac RTF calcium sensitizer project, confirmation (AID 504382)
condition description: IANBD fluorescence interference counterscreen, EC20 Ca2+, at 7.2 µM, active compounds read high, scaled: EC20 calcium 0, EC100 calcium 100
Hit rate of the full screen: of about 2,500 compounds, about 460 (18%) were called active. Only a sample is shown.
Report only the number, with the unit % understood.

The following compounds have reported results that may help.
compound=O=C(CCSc1nnc(-c2ccco2)o1)Nc1ccccc1 measured_property="fluorescence artifact activation" observed=24.7
compound="O=C(O)C1CC(O)CN1C(=O)c1ccco1 (stereo unspecified)" measured_property="fluorescence artifact activation" observed=0.06
compound=Cc1ccccc1NS(=O)(=O)c1ccc(OCC(=O)N2CCCCC2)cc1 measured_property="fluorescence artifact activation" observed=-0.04

Query Clc1ccc(-n2cc(-c3ccc(Br)cc3)[n+]3c2CCCCC3)cc1 yields fluorescence artifact activation of -0.05

Note to self: fluorescence artifact activation recorded for COc1ccc(CN(Cc2cccn2C)S(=O)(=O)c2ccccc2)cc1 was 0.19

Notebook: O=C(NCc1ccco1)C1Cc2ccccc2CN1C(=O)c1ccco1 (stereo unspecified) , fluorescence artifact activation read as 1040

###

assay info: IANBD-channel fluorescence artefacts in buffer – biochemical, artefact control for cardiac RTF calcium sensitizer project, confirmation (AID 504382)
condition description: IANBD fluorescence interference counterscreen, EC20 Ca2+, at 7.2 µM, active compounds read high, scaled: EC20 calcium 0, EC100 calcium 100
Out of some 2,500 compounds screened, about 460 (18%) were called active. Only a sample is shown.
measured property: fluorescence artifact activation (%)
Field format: number, assumed %, no unit text.

Recorded fluorescence artifact activation, per entry:
molecule=O=C(O)CN1C(=O)/C(=C\c2cn(CC(=O)N3CCOCC3)c3ccccc23)SC1=S unit_text=% observed=4.83
molecule=O=C(Nc1ccc(Br)cc1)c1ccc(Br)c(S(=O)(=O)Nc2cccnc2)c1 unit_text=% observed=4.66
molecule=CCN1C(=O)/C(=C/C=C2/CCCN2C)OC1=S unit_text=% observed=0.08

fluorescence artifact activation recorded for this molecule, Cc1c(C)c2c(OCC(=O)N3CCC(O)CC3)cc3c(c2oc1=O)CCC(C)(C)O3 , is -0.07

The recorded fluorescence artifact activation for entry COc1cc(/C=C2\Oc3cc(O)ccc3C2=O)ccc1O equals 0.16

get_value(item= Cc1ccc2[nH]cc(/C=C/c3cc[n+](C)cc3)c2c1 , readout=fluorescence artifact activation) returns -0.07

The value of fluorescence artifact activation measured for the molecule CC1(C)CC(=O)C(C=Nc2cc(C(=O)c3ccccc3)ccc2N)=C(O)C1 turned out to be 6.24

COc1cc(/C=C2\CC/C(=C\c3ccc(OCCO)c(OC)c3)C2=O)ccc1OCCO yielded fluorescence artifact activation of 0.12

Short answer for Cn1c(C(=O)NCCCN2CCCCCC2)cc2c(=O)n(C)c3ccccc3c21 : fluorescence artifact activation was 3.34

For reference, reported fluorescence artifact activation for Cc1sc(NC(=O)CSc2nnc(C(C)C)n2C)c(C#N)c1C stands at 21.9

Value of fluorescence artifact activation reported for the molecule O=C(Nc1cnn(Cc2c(Cl)cccc2Cl)c1)C(c1ccccc1)c1ccccc1 is -0.07

# fluorescence artifact activation of COc1ccc(NC(=O)Cc2ccccc2)cn1 = 0.04

###

assay info: IANBD-channel fluorescence artefacts in buffer – biochemical, artefact control for cardiac RTF calcium sensitizer project, confirmation (AID 504382)
condition description: IANBD fluorescence interference counterscreen, EC20 Ca2+, at 7.2 µM, scaled: EC20 calcium 0, EC100 calcium 100
In all, about 2,500 compounds went through this assay and about 460 (18%) were called active.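 Rule for the calls: active = mean activation above a cutoff of low control average plus 3 SD from the earlier screen (cut at about 12% in these data); inactive = the rest.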 A selection follows.
Outcome field: choose from active, inactive

compound=Cc1ccc(S(=O)(=O)/N=C2/NC(=O)/C(=C/c3cc([N+](=O)[O-])ccc3O)S2)cc1 classification=inactive
compound=Cc1ccc(CNC(=O)CCn2cc(-c3ccc(C)cc3)nc2-c2ccncc2)cc1 classification=active
compound="Brc1ccc(C2=CC(c3cccs3)n3ncnc3N2)cc1 (stereo unspecified)" classification=inactive
compound="CCC1(C)COC(c2ccc(OC)c(OC)c2)OC1 (stereo unspecified)" classification=inactive

[Q] Called result for O=C(CNCc1cccs1)Nc1ccc(S(=O)(=O)N2CCCCC2)cc1
[A] active

[Q] For O=C(O)c1ccc(O)c(O)c1 , what call appears in the results of this test?
[A] inactive

[Q] Would you mind telling me which call this test gave COc1cc2c3nnc(-c4ccc(F)cc4)c-3cn(Cc3cccc(C)c3)c2cc1OC ?
[A] inactive

[Q] How did this test come out for CN1CCN(S(=O)(=O)c2cccc(C(=O)Oc3cccc(Br)c3)c2)CC1 ?
[A] inactive

###

assay info: IANBD-channel fluorescence artefacts in buffer – biochemical, artefact control for cardiac RTF calcium sensitizer project, confirmation (AID 504382)
condition description: IANBD fluorescence interference counterscreen, EC20 Ca2+, at 7.2 µM, scaled: EC20 calcium 0, EC100 calcium 100
Out of some 2,500 compounds screened, about 460 (18%) were called active.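 The calls were made as follows: active = mean activation above a cutoff of low control average plus 3 SD from the earlier screen (cut at about 12% in these data); inactive = the rest.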 Only a sample is shown.
Log the outcome using a class from Y = active, N = inactive

Use the examples below as a reference point.
molecule=CC(=O)NN1C(=O)/C(=C\c2ccc(O)cc2)SC1=S classification=N
molecule="CC1CCCCC1NS(=O)(=O)CCNC(=O)c1ccccc1 (configuration not stated)" classification=N
molecule=O=c1oc2ccccc2cc1-c1ccc(O)cc1O classification=Y

[Q] Called result for CN(CC(=O)NCc1ccco1)S(=O)(=O)c1cccc2cccnc12
[A] N

[Q] What outcome does the record of this test show for CCC(C)(C)NC(=O)C(c1ccc(F)cc1)N(Cc1ccco1)C(=O)c1cnccn1 (configuration not stated) ?
[A] Y

[Q] Test call, this molecule: O=c1c(-c2ccc(O)cc2O)coc2cc(O)cc(O)c12
[A] N

[Q] Test call for this molecule, please: CCOc1ccc(N(C(=O)CNC(=O)c2ccco2)C(C(=O)NC2CCCC2)c2ccncc2)cc1 (configuration not stated)
[A] N

[Q] // outcome(item) with item = CNc1ccccc1C(C)(C)c1cc(C)[nH]n1
[A] N

###

# Lookup of reported fluorescence artifact activation keyed by entry
assay info: IANBD-channel fluorescence artefacts in buffer – biochemical, artefact control for cardiac RTF calcium sensitizer project, confirmation (AID 504382)
condition description: IANBD fluorescence interference counterscreen, EC20 Ca2+, at 7.2 µM, active compounds read high, scaled: EC20 calcium 0, EC100 calcium 100
In all, about 2,500 compounds went through this assay and about 460 (18%) were called active. These entries were drawn from the full list.
State just the number; it will be interpreted in %.

Worked set:
compound="COC(=O)c1sc(N2C(=O)C(O)=C(C(=O)c3ccc(C)o3)C2c2ccc(F)cc2)nc1C (stereo not given)" measured_property="fluorescence artifact activation" observed=7.6
compound=C/C(=N/NC(=O)Nc1ccccc1)c1ccc(C)cc1 measured_property="fluorescence artifact activation" observed=-0.02
compound=Cc1cc(NC(=O)/C(C#N)=C/c2ccc(-c3ccc(SC(F)F)cc3)o2)n(-c2ccccc2)n1 measured_property="fluorescence artifact activation" observed=291

Record CCOCCCNS(=O)(=O)c1ccc(NC(=O)c2ccc(OC)c([N+](=O)[O-])c2)cc1 , field fluorescence artifact activation: 0.52

Lab book: fluorescence artifact activation of Cc1ccc(S(=O)(=O)N2CCOCC2)cc1C(=O)N1C(=O)c2cccc(N)c2C1=O noted as 0.13

Notebook: N=c1oc2ccccc2cc1-c1nc(-c2ccccc2)cs1 , fluorescence artifact activation read as 0.03

// fluorescence artifact activation value for O=C(Nc1cccc(Cl)c1)c1cc(S(=O)(=O)NCCc2ccc(Cl)cc2)ccc1F : 10.6

Looking up O=c1c(/C=C(\O)c2ccc(F)cc2)nc2ccccc2n1-c1ccccc1 , I found its fluorescence artifact activation recorded as 0.04

Value of fluorescence artifact activation reported for the compound O=C1/C(=C/c2cccnc2)SC(=S)N1N1CCOCC1 is 0.1

Kindly note the recorded fluorescence artifact activation for CCCCOc1cccc(C2C(C(=O)c3cccs3)=C(O)C(=O)N2Cc2cccnc2)c1 (stereo not given) , which is -0.01

###

assay info: IANBD-channel fluorescence artefacts in buffer – biochemical, artefact control for cardiac RTF calcium sensitizer project, confirmation (AID 504382)
condition description: IANBD fluorescence interference counterscreen, EC20 Ca2+, at 7.2 µM, active compounds read high, scaled: EC20 calcium 0, EC100 calcium 100
About 460 (18%) of roughly 2,500 compounds were called active. A selection follows.
The entries below are paired with their reported fluorescence artifact activation.
State the answer as a number, implicitly in %.

compound=CCOC(=O)C1(Cc2cccc(OC)c2)CCN(Cc2ccon2)CC1 observed=1.14
compound="CC1(C)CC2CC(C)(CN2CC(=O)C(C#N)c2ccccc2)C1 (stereo not given)" observed=0.12
compound="CCOc1ccc(C2CC(c3c(O)c4ccccc4oc3=O)=NN2c2ccccc2)cc1OC (stereo not given)" observed=5.17
compound=C[C@H]1CCC(=O)N([C@H](CSc2ccc(Br)cc2)Cc2ccccc2)CC1 observed=0.11

Next up:
Lab note: measured fluorescence artifact activation of O=C1S/C(=C\c2ccc(N3CCOCC3)o2)C(=O)N1c1ccccc1 was 22.4
